quantity-name: melting point

Example results:
## Task Consider the compound `NC(=O)c1cc2cc(Br)ccc2c(Cl)c1NC(=O)c1cc(Cn2ncc3c(Cl)cccc32)nn1-c1ncccc1Cl` and give its measured melting point.
## Result 149 to 157 °C

## Task Form field: reported melting point of `NC(=O)c1cc2ccccc2c(Cl)c1NC(=O)c1cc(OCC(F)(F)C(F)(F)F)nn1-c1ncccc1Cl`
## Result 264 to 266 °C

## Task What value of melting point has been reported for the following compound? `COc1cc(C(=O)Nc2c(C(N)=O)cc3ccccc3c2Cl)n(-c2ncccc2Cl)n1`
## Result 154 to 156 °C

## Task Please look up its melting point: `Cc1c(NC(=O)c2cc(Br)nn2-c2ncccc2Cl)c(C(N)=O)cc2nn(C)cc12`
## Result 242 to 244 °C

## Task What does the data say about its melting point? Entry: `Cc1nc2cc(C(N)=O)c(NC(=O)c3cc(Br)nn3-c3ncccc3Cl)c(C)c2s1`
## Result 175 to 180 °C

Others:
## Task Request the reported melting point associated with `NC(=O)c1cc2ccccc2c(Cl)c1NC(=O)c1cc(OCC(F)(F)F)nn1-c1ncccc1Cl`
## Result 158 to 160 °C

## Task Given `NC(=O)c1nc2ccccc2c(Cl)c1NC(=O)c1cc(Br)nn1-c1ncccc1Cl` , state its recorded melting point.
## Result 204 to 206 °C

## Task Consider the compound shown here: `NC(=O)c1cc2ccccc2c(Cl)c1NC(=O)c1cc(OC(F)F)nn1-c1ncccc1Cl` What is its recorded melting point?
## Result 143 to 145 °C
